experimental target: T1, human CD74 (human, UniProt P04233 1-296)
T1 sequence (looked up): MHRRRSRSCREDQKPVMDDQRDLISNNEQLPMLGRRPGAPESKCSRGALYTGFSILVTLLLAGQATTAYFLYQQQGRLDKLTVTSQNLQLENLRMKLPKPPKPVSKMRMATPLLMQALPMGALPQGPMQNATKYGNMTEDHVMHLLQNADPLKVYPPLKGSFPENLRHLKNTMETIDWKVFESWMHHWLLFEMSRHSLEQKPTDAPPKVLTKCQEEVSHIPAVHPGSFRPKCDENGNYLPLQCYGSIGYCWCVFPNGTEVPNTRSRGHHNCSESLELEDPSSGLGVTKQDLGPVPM
experimental protocol: cell-based or functional assay
Catalogue of EC50, GILZ mRNA, SUDHL-6 cells readings, one per entry.
Response body: numeric value in µg/mL, unit text excluded.

# binder, property name, observed result
data = [
    ("ADC 12-10 (anti-hCD74 (LL1) conjugated to Linker 9-4) (antibody, human IgG1, kappa, V domains shown, position 121 is para-azido phenylalanine (pAzF), conjugated to budesonide drug-linker 9-4) VH: QVQLQQSGSELKKPGASVKVSCKASGYTFTNYGVNWIKQAPGQGLQWMGWINPNTGEPTFDDDFKGRFAFSLDTSVSTAYLQISSLKADDTAVYFCSRSRGKNEAWFAYWGQGSLVTVSS VL: DIQLTQSPLSLPVTLGQPASISCRSSQSLVHRNGNTYLHWFQQRPGQSPRLLIYTVSNRFSGVPDRFSGSGSGTDFTLKISRVEAEDVGVYFCSQSSHVPPTFGAGTRLEIKR", "EC50, GILZ mRNA, SUDHL-6 cells", 0.21),
]

What does the data say about its EC50, GILZ mRNA, SUDHL-6 cells? Entry: ADC 12-5 (anti-hCD74 (LL1) conjugated to Linker 2-7) (antibody, human IgG1, kappa, V domains shown, position 121 is para-azido phenylalanine (pAzF), conjugated to dexamethasone drug-linker 2-7) VH: QVQLQQSGSELKKPGASVKVSCKASGYTFTNYGVNWIKQAPGQGLQWMGWINPNTGEPTFDDDFKGRFAFSLDTSVSTAYLQISSLKADDTAVYFCSRSRGKNEAWFAYWGQGSLVTVSS VL: DIQLTQSPLSLPVTLGQPASISCRSSQSLVHRNGNTYLHWFQQRPGQSPRLLIYTVSNRFSGVPDRFSGSGSGTDFTLKISRVEAEDVGVYFCSQSSHVPPTFGAGTRLEIKR 0.4

What do you get for ADC 12-4 (anti-hCD74 (LL1) conjugated to Linker 1-4) (antibody, human IgG1, kappa, V domains shown, position 121 is para-azido phenylalanine (pAzF), conjugated to dexamethasone drug-linker 1-4) VH: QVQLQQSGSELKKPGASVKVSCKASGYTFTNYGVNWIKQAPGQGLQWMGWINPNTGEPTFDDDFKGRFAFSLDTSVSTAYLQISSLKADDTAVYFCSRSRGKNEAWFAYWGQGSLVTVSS VL: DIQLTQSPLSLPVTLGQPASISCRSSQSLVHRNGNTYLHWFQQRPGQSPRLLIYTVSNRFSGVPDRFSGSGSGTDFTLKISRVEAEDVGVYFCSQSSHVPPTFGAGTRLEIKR ? 0.99
